Biological target: human CRTH2 (Homo sapiens, UniProt Q9Y5Y4)
Construct: expressed in transfected cells; membranes used
Sequence (Q9Y5Y4 whole entry): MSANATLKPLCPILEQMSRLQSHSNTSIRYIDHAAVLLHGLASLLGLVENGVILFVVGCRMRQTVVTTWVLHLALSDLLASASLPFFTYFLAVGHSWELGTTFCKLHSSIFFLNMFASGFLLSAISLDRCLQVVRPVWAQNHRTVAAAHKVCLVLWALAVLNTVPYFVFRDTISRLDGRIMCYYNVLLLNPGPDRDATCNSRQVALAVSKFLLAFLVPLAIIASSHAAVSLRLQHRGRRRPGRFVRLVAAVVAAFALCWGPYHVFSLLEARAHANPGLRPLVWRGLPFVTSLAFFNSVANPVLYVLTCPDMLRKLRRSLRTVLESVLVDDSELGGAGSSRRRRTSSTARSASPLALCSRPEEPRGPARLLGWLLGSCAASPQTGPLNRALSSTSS
Test: [35S]GTPγS binding assay (SPA)
Format: biochemical
Conditions: membranes from CHO-K1 cells stably expressing human CRTH2; 60 nM DHK-PGD2; read-out: CRTH2 GTPγS assay IC50
IC50 reference

Recorded results for 3 compounds are shown here.
Q: Requested read-out IC50, target or system human CRTH2 (Homo sapiens, UniProt Q9Y5Y4), entry CN(Cc1cccc(-c2cc(C(F)(F)F)ccc2OCC(=O)O)c1)S(=O)(=O)c1cccnc1 [Compound 34]
A: 0.1 to 1 µM

Q: Value wanted: IC50 (human CRTH2 (Homo sapiens, UniProt Q9Y5Y4)) of entry CCCCOC(=O)N(CCCC)Cc1cccc(-c2cc(C(F)(F)F)ccc2OCC(=O)O)c1 [Compound 19]
A: < 0.1 µM

Q: Observed IC50 on human CRTH2 (Homo sapiens, UniProt Q9Y5Y4) for CC(=O)N(Cc1cccc(-c2cc(C(F)(F)F)ccc2OCC(=O)O)c1)c1ccccc1 [Compound 22] , please.
A: 0.1 to 1 µM

Others:
Q: Could you share what IC50 was measured for CCCCNC(=O)CN(Cc1cccc(-c2cc(C)ccc2OCC(=O)O)c1)C(=O)OCCCC [Compound 8] , tested on human CRTH2 (Homo sapiens, UniProt Q9Y5Y4)?
A: < 0.1 µM

Q: IC50 of CCCCOC(=O)N(CC(=O)NC)Cc1cccc(-c2cc(C(F)(F)F)ccc2OCC(=O)O)c1 [Compound 20] on human CRTH2 (Homo sapiens, UniProt Q9Y5Y4)?
A: < 0.1 µM

Q: Param readout = IC50; param system = human CRTH2 (Homo sapiens, UniProt Q9Y5Y4); param query = CCCCNC(=O)CN(Cc1cccc(-c2cc(Cl)ccc2OCC(=O)O)c1)C(=O)OCCCC [Compound 11] ; response: value
A: < 0.1 µM
